Measured values drawn from the supplement of paper PMC9170038 for this set.

system: MS2 coat protein; test: apparent KD of MS2 coat protein; designed switch direction (-1 OFF switch, 1 ON switch): -1; higher = weaker reporter binding; details: input ligand: microRNA oligo, concentration not stated
reported-metric: apparent KD of MS2 coat protein (µM)
Please reply with the bare figure in µM and do not write the unit itself.

ACAAGCUUAAAAAUCCUAAACAUGAGGAUCACCCAUGUUCGUCUUAUAAAAAUAAAAAUAAAAAAUAAAAAAUAAAA [Sensor V2: 70] (Eterna round: R96, puzzle: Sensor v2, turn-off variant)    0.228
AAAAGGCAGGGAGGAUAUGCUUACCUGGGUCGUCUUCAGACAUGAGGAUCACCCAUGUAGUCGACGCAGAAGGCCCUCAAAGCC [Mat - Exclusion NG 2 - Mod of JL - D60] (Eterna round: R96, puzzle: Exclusion NG 2)    0.0389
CUGAACCCGGUAGGAUAUAUUGUGGGCGGGCGUGGAACGACAUGAGGAUCACCCAUGUAAUUGAGGUAGAAGGGCCGAGAGAUU [Excl-NG2-LRO15] (Eterna round: R96, puzzle: Exclusion NG 2)    0.023
UAAGUUUUGGUAGGAUAUACUUUAAAUUUCUCUAUCCAUACAUGAGGAUCACCCAUGUUUACAUUGUAGAAGGACCACUAUGUU [JR_ExcNG2_Sub056] (Eterna round: R96, puzzle: Exclusion NG 2)    0.0187

Exercise: Name the reported apparent KD of MS2 coat protein value associated with the sequence AUCGUGCAGCUUUGCUGUACGAGUACAUGAGGAUCACCCAUGUAGGAUAUGGUACGCAAAGCGUGCUAGAAGGAUAUGAGAAAU [Mat - Exclusion NG 3 - Mod of JL - D99] (Eterna round: R96, puzzle: Exclusion NG 3)
Key: 0.0188

Exercise: Entry AGCGCCAUCGUGAGAUGGCGUAUUACAUGAGGAUCACCCAUGUAGGAUAUCGAUUGCUUUGCAGUCGAGAAGGACAUGUUUUAG [JL ENG3 3.80 Mod E] (Eterna round: R96, puzzle: Exclusion NG 3) has what apparent KD of MS2 coat protein?
Key: 0.0694

Exercise: GET /values?readout=apparent KD of MS2 coat protein&item= GUGUGUGAUGUAGGAUAUACGAGACAUGAGGAUCACCCAUGUGAGGGAAGGAGAAGGAGAAGAGAGUAGAAGGAUAGAGUGUGA [Default title] (Eterna round: R96, puzzle: Exclusion NG 2)
Key: 0.144

Exercise: Request the reported apparent KD of MS2 coat protein associated with UAGCAUUGCCUUUGGUAGUGCUUUACAUGAGGAUCACCCAUGUAGGAUAUGGUCGGCUUUGCUGACCAGAAGGACAUGUGUAUU [MOD ENG3 1.04 by JL] (Eterna round: R96, puzzle: Exclusion NG 3)
Key: 0.0944

Exercise: Quick one: apparent KD of MS2 coat protein of CCACGUCCGUACGUGUACUUGUCUCCUGUGUGCCCGGGUACAUGAGGAUCACCCAUGUCUGUGCUCGCCUUCUGCCC [JR_Sensorv2_tov2_Sub724] (Eterna round: R96, puzzle: Sensor v2, turn-off variant 2) ?
Key: 0.0847

----------
tested on: MS2 coat protein; assay: apparent KD of MS2 coat protein; higher = weaker reporter binding; conditions: Eterna round: R107; input ligand: arginine 13.2 mM
Kindly return label 1 if reported apparent KD of MS2 coat protein is no lower than 40 nM; return label 0 if it is lower.

UUUACAUGAGGAUCACCCAUGUGCCAUGAUACCAGACAUGAAAAUGUCCCUUGGCAGCAUGAGUGAUUCAUCCGAAAGGAUGUUU [Jehnice]    label 1
UGUAUGGACUGAAGGAGCGGGAAAUAAACUUGAGGAUCACCCAGGUAAUAGGCGAAAGCCACCCAGGUAGGUCGCAGUCCAUACU    label 0
AAGAGACAUGAGGAUCACCCAUGUGUUGAUACCAGAAACACAAAGUUCCCUUGGCAGCAAAUCUGAGCGAAACGAUCUAGAGCGC [theeternabot_sameState_MS2_Theo_A_30]    label 1
GGAAACCAAAGCGAUACCAGCGUACAUGAAAAGAGCGAAAACAUGAGGAUCACCCAUGUACGCCCUUGGCAGCGCAAAACCAAGG    label 0
AAUAAGAUCCUCAUGUGAGUCGUACCAUAACGAGGACCGGUACGGCCGCCACUCGAACAUGAGGAUCACCCAUGUAGGUACGACA [M'-T'-T-MS2-T'' - Design 8]    label 1

Exercise: Has GAUUUAACAAAAGUUGGAUCAGUGGGUGAACGAGGACCGGUACGGCCGCCACUCGGACAUGAGGAUCACCCAUGUCCAUGUGAAA [AstrosExyTryA#19] a recorded apparent KD of MS2 coat protein greater than or equal to 40 nM?
Key: label 1

Exercise: Please check the record AGCUCGCGUCCUCAAGCGUCAAAGACGCGUCGAGGACCGGUACGGCCGCCACUCGACCUGAGGAUCACCCAGGUUUAAGCGAGCA [TrypAX 6 #SwitchBubble #AlternativeMS2 #MS2Late #CuTurnoff] and state if its apparent KD of MS2 coat protein is at or above 40 nM.
Key: label 0
